# System: full-length human prolyl-4-hydroxylase domain (PHD) enzymes, PHD1 and PHD2
# METHOD NOTES: TR-FRET assay, selectivity of compounds for PHD1 over PHD2 (ratio of Kis calculated from IC50s)
# Assay type: biochemical
# ASSAY CONTEXT: ratio of Kis (PHD2 Ki/PHD1 Ki), Kis calculated from TR-FRET IC50s by Cheng Prussoff equation; 1 uM 2-OG
Reported Selectivity of PHD1 over PHD2 values for the following compounds.
REPORTED METRIC: Selectivity of PHD1 over PHD2

INSERT INTO assay_data (compound, observed) VALUES
  ('C[C@H](CC(=O)O)NC(=O)c1ncc(-c2cccc(Cl)c2)cc1O [compound 3]', '~17 fold'),
  ('CC(C)(CNC(=O)c1ncc(-c2cccc(OCCc3ccc(Cl)cc3)c2)cc1O)C(=O)O [compound 31]', '~40 fold'),
  ('CC(C)(CNC(=O)c1ncc(-c2ccc3cnccc3c2)cc1O)C(=O)O [compound 42]', '~197 fold'),
  ('CC(C)(CNC(=O)c1ncc(-c2ccc3ccncc3c2)cc1O)C(=O)O [compound 43]', '~1875 fold'),
  ('CC(C)(CNC(=O)c1ncc(-c2cccc(O)c2)cc1O)C(=O)O [compound 21]', '~1494 fold'),
  ('COCCc1ccc(OCc2cccc(-c3cnc(C(=O)NCC(C)(C)C(=O)O)c(O)c3)c2)cc1 [compound 13]', '~6 fold'),
  ('O=C(O)CCNC(=O)c1ncc(-c2cnn(-c3ccccc3)c2)cc1O [compound 54]', '~11 fold'),
  ('CC(C)(CNC(=O)c1ncc(-c2cccc(COc3cccc(Cl)c3)c2)cc1O)C(=O)O [compound 11]', '~50 fold'),
  ('CC(C)(CNC(=O)c1ncc(-c2cccc(Cl)c2)cc1O)C(=O)O [compound 4]', '~1187 fold'),
  ('CC(C)(CNC(=O)c1ncc(-c2cnn(-c3ccc(Cl)cc3Cl)c2)cc1O)C(=O)O [compound 34]', '~24 fold'),
  ('CC(C)(CNC(=O)c1ncc(-c2cccc(NCc3ccc(Cl)cc3)c2)cc1O)C(=O)O [compound 30]', '~223 fold'),
  ('CC(C)(CNC(=O)c1ncc(-c2cn(CCCc3ccc(Cl)cc3)nn2)cc1O)C(=O)O [compound 47]', '~10 fold'),
  ('CC(C)(CNC(=O)c1ncc(-c2cccc(-c3cccnc3)c2)cc1O)C(=O)O [compound 15]', '~125 fold'),
  ('CC(C)(CNC(=O)c1ncc(-c2cccc(OCc3ccc(Cl)cc3)c2)cc1O)C(=O)O [compound 22]', '~261 fold'),
  ('CC(C)(CNC(=O)c1ncc(-c2cccc(-c3ccccc3)c2)cc1O)C(=O)O [compound 9]', '~189 fold'),
  ('CC(C)(CNC(=O)c1ncc(-c2cccc(Oc3ccccc3)c2)cc1O)C(=O)O [compound 8]', '~219 fold'),
  ('CC(CNC(=O)c1ncc(-c2cnn(-c3ccccc3)c2)cc1O)C(=O)O (centres unmarked) [compound 50]', '~50 fold');
